# Test system: COLO 205 colon
# TEST: NCI-60 one-dose screen, 48 h
# COND: 10 µM unless noted
About 83,000 compounds went through this panel and 20% of them were active in at least one assay; those are over-represented in the sample as a whole. Active and inactive are the calls of the source. How the source made its calls: active means growth percent below 10; inactive means the rest.
Allowed answers: active, inactive

Incoming: Check the results log: what was the call for `CCCCCCCCCCCCCCCCCC(=O)OCCCCCCCCCCCCC` ?
Outgoing: inactive

Incoming: For CC(C)(C)[Si](C)(C)OC1[C@@H](O[Si](C)(C)C(C)(C)C)[C@@H](CNC(=O)NC(=O)NC(=O)CI)O[C@H]1n1cnc2c(NC(=O)Nc3ccccc3)ncnc21 (stereo partly drawn) , what call appears in the results of this test?
Outgoing: inactive

Incoming: I would be grateful if you could indicate the recorded call for `COc1ccc(CNc2c3ccccc3nc3ccccc23)cc1F` .
Outgoing: active

Incoming: Outcome? `NC(=O)c1ccc[n+](Cc2ccccc2)c1`
Outgoing: inactive

Incoming: Would you mind telling me which call this test gave CC1=CCC2C1CC=C(C)C(CC[C@H]1[C@@](C)(O)CCC3OC(C)(C)[C@H](OC(=O)c4ccccc4)CC[C@@]31C)C2(C)C (stereo partly drawn) ?
Outgoing: inactive

Incoming: Look up the recorded call for `Cc1cc(-c2ccc(N=Nc3c(S(=O)(=O)O)cc4cc(S(=O)(=O)O)cc(O)c4c3O)c(C)c2)ccc1N=Nc1c(S(=O)(=O)O)cc2cc(S(=O)(=O)O)cc(O)c2c1O` in this test.
Outgoing: inactive

Incoming: Assay outcome for O=C1N(Cc2ccccc2Cl)c2ccccc2C12NN=C(c1ccccc1)S2 (stereo not drawn) : what was it?
Outgoing: inactive

Incoming: Outcome logged for `COc1ccc(/C=N/NC(N)=S)c(OC)n1` in this assay:
Outgoing: inactive

Incoming: Recorded test outcome, item `CC(C)c1ccc(-c2cnc3nonc3n2)cc1`
Outgoing: inactive

Incoming: Could you check what this test reported for `O=C(Nc1ccc(Cl)cc1)c1cc(-c2ccc(Cl)cc2)c2sc(=O)[nH]c2n1` ?
Outgoing: active

Incoming: // outcome(item) with item = `COC(=O)CSc1ccc(Cl)cc1`
Outgoing: inactive

Incoming: Just curious, what result did `N/N=C(\C(=N\N)c1ccccc1)c1ccccc1` get here?
Outgoing: inactive

Incoming: Answer briefly: the call reported for `Cc1cc(O)c2cc3c(O)c(O)ccc3cc2c1` in this assay.
Outgoing: inactive

Incoming: What outcome does the record of this test show for `NNC(=O)CSc1nc2scc(-c3ccccc3)c2c(=O)n1-c1ccccc1` ?
Outgoing: inactive

Incoming: Tell me the assay call for CC1=CC(=O)OC1C/C=C(\C)CCC1[C@@]2(C)CCC[C@@](C)(C(=O)O)C2CC[C@@]1(C)O (stereo partly drawn) please.
Outgoing: inactive

Incoming: Hi, sorry to bother you, what did the test record for CC1OC(n2c3ccccc3c3c4c(c5c6ccccc6[nH]c5c32)C(=O)N(CCN2CCOCC2)C4=O)CC(O)C1O (stereo not drawn) ?
Outgoing: inactive

Incoming: What was the test verdict on `CN(C)c1nc(-c2ccco2)n2nc(-c3ccc(Cl)cc3)cc2n1` ?
Outgoing: inactive

Incoming: Any idea what this test logged for `N=C(N)c1ccc(-c2ccc(-c3ccco3)o2)cc1F` ?
Outgoing: active

====

Quick reference for growth among some compounds
# Test system: ACHN renal
# TEST: NCI-60 one-dose screen, 48 h (100 = growth as untreated, 0 = no growth, -100 = all killed)
# COND: 10 µM unless noted
The panel holds about 83,000 compounds, 20% with a hit somewhere; the sample as a whole holds those more often.
Use % as the unit, but write only the number.

Consider the following illustrative entries.
{"INPUT_SMILES": "CCOC(=O)c1cc(N)nc2ccccc12", "ASSAY_TARGET": "ACHN renal", "UNITS_TEXT": "%", "growth": 105}
{"INPUT_SMILES": "COc1cnc2c(c1)C(=O)c1c-2n(CCCN2CCCC2)c(=O)c2cc(Cl)ccc12", "ASSAY_TARGET": "ACHN renal", "UNITS_TEXT": "%", "growth": 7.7}

Incoming: Can you look up the measured growth of `Clc1ccc(-c2cnc3nonc3n2)s1` for me?
Outgoing: 81.9

Incoming: Please report the recorded growth for `O=C(CC(=O)c1ccccc1F)Nc1ccc([N+](=O)[O-])cc1` .
Outgoing: 100

Incoming: Please report the recorded growth for `Cc1ccccc1Nc1n[nH]c(Cc2ccccc2)n1` .
Outgoing: 106

Incoming: Recorded growth for `COc1ccccc1CNCCCN1C(=O)c2ccc3c4c(ccc(c24)C1=O)C(=O)N(CCCCNCCCN)C3=O` , please?
Outgoing: 28.1

====

# Tested on: MOLT-4 leukemia
# TEST: NCI-60 one-dose screen, 48 h (100 = growth as untreated, 0 = no growth, -100 = all killed)
# COND: 10 µM unless noted
The panel holds about 83,000 compounds, 20% with a hit somewhere; the sample as a whole holds those more often.
Quick rule for you: growth under 10% gets 1 (yes), anything else gets 0 (no).

{"COMPOUND": "Clc1cc(Cl)cc(-c2cnc3nonc3n2)c1", "ASSAY_TARGET": "MOLT-4 leukemia", "DISCRETE_LABEL": "0 (no)"}
{"COMPOUND": "CCN1C(=O)N(CC)C2C1N=C(SC)N2/N=C/C=C/c1ccccc1OC (stereo not given)", "ASSAY_TARGET": "MOLT-4 leukemia", "DISCRETE_LABEL": "0 (no)"}
{"COMPOUND": "O=C(C(=O)N1CCCC1)c1cn(CCCn2cc(C(=O)C(=O)N3CCCC3)c3cc(Br)ccc32)c2ccc(Br)cc12", "ASSAY_TARGET": "MOLT-4 leukemia", "DISCRETE_LABEL": "0 (no)"}
{"COMPOUND": "CC(C)(c1ccccc1)c1cc(O)c(C(C)(C)c2ccccc2)cc1O", "ASSAY_TARGET": "MOLT-4 leukemia", "DISCRETE_LABEL": "1 (yes)"}

In the following, a different compound is considered.
Incoming: Item `CC(=O)Nc1ccc(/C=N/N2CCCCCC2)cc1` : growth beneath 10%, strictly?
Outgoing: 0 (no)

====

# Tested on: OVCAR-3 ovarian
# TEST: NCI-60 one-dose screen, 48 h
# COND: 10 µM unless noted
About 83,000 compounds went through this panel and 20% of them were active in at least one assay; those are over-represented in the sample as a whole. The source made the active and inactive calls. Rule for the calls: active = growth percent below 10; inactive = the rest.
Respond only with the outcome that fits, drawn from active, inactive

Example results:
{"MOLECULE": "CN1C(=O)NC(Cc2c[nH]c3c(Cl)cccc23)C1=O (stereo unspecified)", "ASSAY_TARGET": "OVCAR-3 ovarian", "DISCRETE_LABEL": "inactive"}
{"MOLECULE": "CC(C)(C)c1ccc(OC(=O)Nc2ccccc2)cc1", "ASSAY_TARGET": "OVCAR-3 ovarian", "DISCRETE_LABEL": "inactive"}
{"MOLECULE": "Oc1ccc(-c2nc3ccccc3s2)cc1CN(Cc1ccccn1)Cc1ccccn1", "ASSAY_TARGET": "OVCAR-3 ovarian", "DISCRETE_LABEL": "inactive"}
{"MOLECULE": "COc1ccc2nc3ccccc3c(NCc3ccc(Cl)cc3)c2c1", "ASSAY_TARGET": "OVCAR-3 ovarian", "DISCRETE_LABEL": "inactive"}
{"MOLECULE": "C=C(C)[C@@H]1CC[C@]2(C(=O)NC(COC(=O)C(Cl)Cl)(COC(=O)C(Cl)Cl)COC(=O)C(Cl)Cl)CC[C@]3(C)[C@H](CC[C@@H]4[C@@]5(C)CC[C@H](OC(C)=O)C(C)(C)[C@@H]5CC[C@]43C)[C@@H]12", "ASSAY_TARGET": "OVCAR-3 ovarian", "DISCRETE_LABEL": "inactive"}
{"MOLECULE": "CCN(CCC#N)c1ccccc1", "ASSAY_TARGET": "OVCAR-3 ovarian", "DISCRETE_LABEL": "inactive"}
{"MOLECULE": "CN1C(=O)N(C)C2C1NN=c1s/c(=C\\c3ccc(Br)cc3)c(=O)n12 (stereo unspecified)", "ASSAY_TARGET": "OVCAR-3 ovarian", "DISCRETE_LABEL": "active"}
{"MOLECULE": "CN(C)c1nc(-c2ccco2)n2nc(-c3ccc(Cl)cc3)cc2n1", "ASSAY_TARGET": "OVCAR-3 ovarian", "DISCRETE_LABEL": "inactive"}
{"MOLECULE": "COc1cc(NCCC2CCCCN2)c2ncccc2c1OC (stereo unspecified)", "ASSAY_TARGET": "OVCAR-3 ovarian", "DISCRETE_LABEL": "active"}
{"MOLECULE": "Cc1ccc([C@H]2c3[nH]c4ccccc4c3C[C@H]3C(=O)N(CCCCCCC(=O)NO)CC(=O)N23)cc1", "ASSAY_TARGET": "OVCAR-3 ovarian", "DISCRETE_LABEL": "inactive"}

Incoming: I'd appreciate the recorded outcome for Nc1ncnc2c1N=C(c1ccc3c(c1)OCO3)CC(c1ccc(Cl)cc1)N2 (stereo unspecified) from this test.
Outgoing: inactive

Incoming: Hi, do you know how `O=C(CCl)Nc1ccc2c(c1)C(=O)c1ccccc1C2=O` came out in this test?
Outgoing: active

Incoming: Hello, I am checking results. What call was entered for `C=C1C(=O)O[C@H]2[C@H]1CC/C(COC(=O)NCc1ccc(Cn3c(=O)sn(CCCl)c3=O)cc1)=C\CC[C@@]1(C)O[C@@H]21` ?
Outgoing: active

Incoming: Outcome? `CCCCCCCCCCCCCCCC1=NCCN1`
Outgoing: inactive

Incoming: What is the recorded call for this molecule in the test? C=CCOC(=O)C1=C(C)NC2=C(C(=O)CCC2)C1c1ccc(F)cc1 (stereo unspecified)
Outgoing: inactive

Incoming: Outcome? CC(CN1CCN(CC(C)Nc2ccnc3cc(Cl)ccc23)CC1)Nc1ccnc2cc(Cl)ccc12 (stereo unspecified)
Outgoing: active

Incoming: Query: recorded result category for `CC1=C(/C=C/C(C)=C/C=C(C(=O)O)\C(C)=C\C(=O)O)C(C)(C)CCC1` in this test
Outgoing: inactive

Incoming: Which outcome was entered for the molecule `S=C(S)Oc1cccc2cccnc12` in this test?
Outgoing: inactive

Incoming: Recorded test call requested for COc1cc(CN(c2ccc(C)cc2)C2OC(=O)c3ccccc32)cc(OC)c1OC (stereo unspecified)
Outgoing: active

Incoming: Status in this test for COc1ccc(C2NC(=O)c3cc4c(cc3N2)OCO4)cc1 (stereo unspecified) ?
Outgoing: active

Incoming: Hi team, can someone confirm the assay call for `N=C(N)c1ccc(-c2ccc(-c3ccco3)o2)cc1F` ?
Outgoing: inactive
